This collection of values is drawn from ChEMBL document CHEMBL1128465.

- System: Human betaherpesvirus 5
- ASSAY METHOD TEXT: In vitro antiviral activity against human cytomegalovirus by plaque method.
- Assay type: functional, organism-based
- CONDITION CONTEXT: Human betaherpesvirus 5
MEASUREMENT TYPE: IC50 (nM)

(I) NC(=S)c1cn(C2C=CC(CO)O2)c2ncnc(N)c12 (stereo not drawn)
(II) NC(=S)c1cn(C2OC(CO)CC2O)c2ncnc(N)c12 (stereo not drawn)
(III) NC(=S)c1cn([C@H]2C[C@H](O)[C@@H](CO)O2)c2ncnc(N)c12
-- ask Sort ascending by IC50: all records listed above. Kindly provide the labels arranged according to the requested ordering.
-- reply II, I, III
(II: 500 nM, I: 2700 nM, III: 5700 nM)

* * *

# Lookup of reported IC50 keyed by entry
- System: KB
- ASSAY METHOD TEXT: In vitro inhibition of KB cell proliferation.
- Format: functional, cell-based, Homo sapiens
- CONDITION CONTEXT: kb
The reply should contain only the number, in µM.

{"COMPOUND": "N#Cc1cn([C@@H]2O[C@H](CO)[C@@H](O)[C@H]2O)c2ncnc(N)c12 (stereo in doubt; 6) [TOYOCAMYCIN]", "IC50 / µM": 17}

-- ask Write down IC50 measured for item N#Cc1cn([C@@H]2O[C@H](CO)[C@@H](O)[C@H]2O)c2ncnc(N)c12 (stereo in doubt; 2) [TOYOCAMYCIN]
-- reply 0.1

* * *

- System: KB
- ASSAY METHOD TEXT: In vitro inhibition of KB cell proliferation.
- Assay type: functional, cell-based, Homo sapiens
- CONDITION CONTEXT: Homo sapiens, KB
MEASUREMENT TYPE: IC50 (µM)

Please review the entries below; each comes with its answer.
{"MOLECULE": "N#Cc1cn(C2C=CC(CO)O2)c2ncnc(N)c12 (centres undefined)", "TESTED TARGET": "KB", "UOM": "µM", "IC50": 176}
{"MOLECULE": "NC(=S)c1cn(C2CCC(CO)O2)c2ncnc(N)c12 (centres undefined)", "TESTED TARGET": "KB", "UOM": "µM", "IC50": 11}

(A) C[C@H]1OC(n2cc(C(=N)S)c3c(N)ncnc32)[C@H](O)[C@@H]1O (some centres undefined)
(B) NC(=S)c1cn(C2OC(CO)CC2O)c2ncnc(N)c12 (centres undefined)
-- ask Select one: A or B . Criterion: greater recorded IC50. // caller expects the label of the chosen entry
-- reply B
(B: 3 µM, A: 0.5 µM)

* * *

- Tested on: KB
- ASSAY METHOD TEXT: In vitro inhibition of KB cell proliferation.
- Format: functional, cell-based, Homo sapiens
- CONDITION CONTEXT: Homo sapiens, KB
MEASUREMENT TYPE: IC50 (µM)

The examples below pair each entry with its known result.
{"COMPOUND": "N=C(S)c1cn([C@@H]2O[C@H](CO)[C@@H](O)[C@@H]2N)c2ncnc(N)c12", "IC50 / µM": 2.5}
{"COMPOUND": "NC(=S)c1cn([C@@H]2O[C@H](CO)[C@H](O)[C@H]2O)c2ncnc(N)c12", "IC50 / µM": 1}
{"COMPOUND": "NC(=S)c1cn(C2C=CC(CO)O2)c2ncnc(N)c12 (stereo not given)", "IC50 / µM": 5}

(I) N#Cc1cn(C2OC(CO)CC2O)c2ncnc(N)c12 (stereo not given)
(II) N#Cc1cn(C2CCC(CO)O2)c2ncnc(N)c12 (stereo not given)
-- ask Identify the entry with the larger IC50. Options: I and II Mark your answer with the label of the selected entry.
-- reply II

(A) N#Cc1cn([C@H]2C[C@H](O)[C@@H](CO)O2)c2ncnc(N)c12
(B) NC(=S)c1cn([C@H]2C[C@H](O)[C@@H](CO)O2)c2ncnc(N)c12
-- ask Parameter check: reported IC50 is higher for which label, A or B ? Answer by quoting the chosen item's label.
-- reply A
